- System: SR leukemia
- Method description: NCI-60 one-dose screen, 48 h (100 = growth as untreated, 0 = no growth, -100 = all killed)
- Test context: 10 µM unless noted
The panel holds about 83,000 compounds, 20% with a hit somewhere; the sample as a whole holds those more often.
Use true (1) when the recorded growth is no lower than 40%; use false (0) when it is lower.

Molecule	Answer label
CCC(=O)c1cc(C(=O)OC)c2ccc3c4ccccc4ccc3n12	true (1)

# input Reported growth at or above 40%? `Cc1cc(N=C(N)c2ccccc2)ccc1OCCCCCCCCn1ccnc1`
# output false (0)

# input Is reported growth greater than or equal to 40% here: `C/C(=N\Nc1ccc(C(=O)O)cc1)c1cnn(-c2cc(=O)[nH]c3ccc(C)cc23)c1C`
# output true (1)

# input Entry `CCc1ccccc1-c1nc(CN[C@@H]2C[C@@H]3C[C@H]([C@H]2C)C3(C)C)c(C)o1` : is its growth no less than 40%?
# output false (0)

# input Determine whether this molecule has growth no lower than 40%: `O=C(Nc1nc2ccc([N+](=O)[O-])cc2s1)Nc1ccc(Cl)cc1Cl`
# output true (1)

# input # check: growth of CCOC(=O)/C(F)=C/C1CC1C(c1ccccc1)c1ccccc1 (stereo not given) is greater than or equal to 40%
# output true (1)

# input growth >= 40% for `COc1cc(NC(=O)CSc2nnc(-c3ccc(-c4nc5ccc(Cl)cc5[nH]4)cc3)o2)cc(OC)c1OC` ?
# output false (0)

---

- System: RPMI-8226 leukemia
- Method description: NCI-60 one-dose screen, 48 h
- Test context: 10 µM unless noted
About 83,000 compounds went through this panel and 20% of them were active in at least one assay; those are over-represented in the sample as a whole. Activity calls are given as the source filed them. The calls were made as follows: active = growth percent below 10; inactive = the rest.
Could you please pick one outcome from this set? 1.0 = active, 0.0 = inactive

# input Each compound tested received a call. Report the one for `O=c1ccc(Cn2c(C(F)(F)F)cc3c(Cl)ncnc32)c[nH]1` .
# output 0.0

# input Called result for `O=C(N/N=C/c1occc1Br)c1[nH]c2ccc(Br)cc2c1-c1ccccc1`
# output 1.0

# input Field: outcome | Entry: `Cn1cc(-c2cc(N)n3nc(-c4c[nH]c5ccc(Cl)cc45)cc3n2)c2cccnc21`
# output 1.0

# input // param item: `C[C@@H]1CN(c2ccc3ncc(C#Cc4cncc(C(=O)Nc5ccc(CN6CCN(C)CC6)c(C(F)(F)F)c5)c4)n3n2)C[C@@H](C)O1` ; yields the recorded call
# output 1.0

---

- Test system: SF-539 CNS
- Method description: NCI-60 one-dose screen, 48 h
- Test context: 10 µM unless noted
- Description: Cells are grown in 96 well plates and exposed to the test compound for 48 hours. Compounds are tested at a single concentration, which is 10^-5 M for most compounds. The reported endpoint is percent growth (GI% or GIPRCNT), where numbers from 0 - 100% represent growth inhibition, and numbers from -100% - 0 represent cell death. For example, a value of 40 represents 60% growth inhibition. A value of 0 means no net growth occurred over the course of the experiment. […]
This is part of a sample that, as a whole, favours compounds with a hit. Of some 83,000 tested, about 20% had one in any assay. Active and inactive are the calls of the source. Rule for the calls: active = growth percent below 10; inactive = the rest.
Can you answer with just one of these options? yes = active, no = inactive

Worked set:
                                   compound  target_under_test  answer_label
0  COc1ccc(-c2nc3ccccc3n2CC(=O)N=Nc2c(O)[nH]c3ccc(Br)cc23)cc1         SF-539 CNS            no
1  COc1ccc2[nH]cc(-c3cc4nc(-c5cn(C)c6ncccc56)cc(N)n4n3)c2c1         SF-539 CNS           yes
2      COC(=O)CSC1=C(C)C(=O)C(OC)=C(OC)C1=O         SF-539 CNS            no
3  Cc1[nH]nc2ccc3nc(-c4cn[nH]c4C(F)(F)F)c4c(c3c12)CCCC4         SF-539 CNS           yes
4     Cn1ncc2c(N)nc(Oc3ccccc3-c3ccccc3)nc21         SF-539 CNS            no
5  CN(C)c1nc(NCCNS(=O)(=O)c2ccc(C(=O)/C=C/c3ccc(C(F)(F)F)cc3)cc2)nc(N2CCOCC2)n1         SF-539 CNS           yes

# input Identify the outcome logged in this assay for the compound shown: `O=C(N=Nc1c(O)[nH]c2ccc(Br)cc12)c1ccc2nc(-c3ccc(Cl)cc3)[nH]c2c1`
# output yes

# input Hello, I am checking results. What call was entered for `N#Cc1ccc(C(=O)CSc2nc3c(c(Nc4ccc(S(N)(=O)=O)cc4)n2)CCC3)cc1` ?
# output no

# input Check the results log: what was the call for `COc1ccc(-c2cc(-c3ccccc3)c(C#N)c(=O)[nH]2)cc1S(N)(=O)=O` ?
# output no

# input // outcome(item) with item = `CCCCCCCCc1cccc(CC(=O)Nc2ccc(C)cc2C(=O)O)c1`
# output no

# input Dear all, I need the recorded test outcome for `COc1ccc(/C=C/C(=O)c2ccc(S(=O)(=O)NCCNc3nc(N(C)C)nc(N4CCOCC4)n3)cc2)cc1` , thank you.
# output no

# input Dear colleague, could you share the recorded outcome for `COc1ccc(C(=O)C[n+]2cccc3c4ccccc4ccc32)cc1` when you have a moment?
# output no

---

// growth lookup, one value per entry
- System: SN12C renal
- Method description: NCI-60 one-dose screen, 48 h (100 = growth as untreated, 0 = no growth, -100 = all killed)
- Test context: 10 µM unless noted
Compounds without any hit were thinned out: in the full panel of roughly 83,000, 20% have a hit. Active and inactive are the calls of the source. Rule for the calls: active = growth percent below 10; inactive = the rest.

>>> print(df.to_string())
                            chemical_string    measured_value
0  C[C@@H](Nc1c(C#N)cnc2ccc(-c3cnc4[nH]ncc4c3)cc12)c1ccccc1  11.3% (inactive)
1  Cc1ccc(C(=O)Nc2cc(-c3ccccc3)cc(C(F)(F)F)c2)cc1C#Cc1cnc2cccnn12  65.9% (inactive)
2  COC(=O)c1c(C(=O)OC)c2c3ccccc3c3ccccc3n2c1C(=O)C(C)(C)C  87.3% (inactive)
3  Cc1ccc(Nc2nnc(-c3c[nH]c4ccccc34)o2)c(C)c1    18% (inactive)

Now for another entry.
The molecule listed as `CN1CCN(C(=O)Oc2cc3c(c4ccccc24)[C@H](CCl)CN3C(=O)c2cc3cc(OCCCN4CCC4)ccc3[nH]2)[C@@H]2CSSC[C@H]21` shows growth equal to -75.8% (active)

---

- System: KM12 colon
- Method description: NCI-60 one-dose screen, 48 h
- Test context: 10 µM unless noted
About 83,000 compounds went through this panel and 20% of them were active in at least one assay; those are over-represented in the sample as a whole. Calls of active or inactive are those of the source. The calls were made as follows: active = growth percent below 10; inactive = the rest.
Field 'call' accepts active, inactive

// known answers, use as guide
>>> df
                                   compound  target_under_test  answer_label
0  Cc1nn(-c2ccccc2)c2nc(C)n(CC(=O)N/N=C/c3cccc([N+](=O)[O-])c3)c(=O)c12         KM12 colon      inactive
1  COc1cc(NC(=O)CSc2nnc(-c3ccc(-c4nc5ccc(Cl)cc5[nH]4)cc3)o2)cc(OC)c1OC         KM12 colon      inactive
2  O=C(N/N=C/c1occc1Br)c1[nH]c2ccc(Br)cc2c1-c1ccccc1         KM12 colon        active
3  Cc1cccc(/C=C/c2ccc(NC(=S)NCCCCN(C)C)cc2)c1         KM12 colon        active
4  S=C(Nc1ccccc1)Nc1ccc(OCc2nc3ccc(Cl)cc3[nH]2)cc1         KM12 colon      inactive

# input For `O=C1Nc2cc(-c3ccc(NS(=O)(=O)c4ccc(C(F)(F)F)cc4)cc3)ccc2/C1=C/c1ccc[nH]1` , which call appears in the assay record?
# output inactive

# input Short answer needed: outcome of this test for COc1ccc([C@H]2C(C(=O)c3ccc(Cl)cc3)C3(N[C@@H]2c2ccccc2)C(=O)Nc2ccccc23)cc1 (some centres undefined) ?
# output inactive

# input // outcome(item) with item = `Cn1cc(Nc2ncnc(-c3ccc(N4CCCC4)c(C#N)c3)n2)cn1`
# output inactive

# input What classification did `O=C1NC(=S)/C(=C/c2cn(-c3ccccc3)nc2-c2ccccc2)S1` end up with in this test?
# output inactive

# input Recorded test call requested for `O=C(CSc1nc2c(c(=O)[nH]1)CCCC2)Nc1ccccc1C(=O)O`
# output inactive

# input Hello, I am checking results. What call was entered for `OC(c1ccccc1)(c1ccccc1)C1CCN(c2ccc3nnc(Cl)n3n2)CC1` ?
# output inactive

# input Test call, this compound: `COc1ccc2[nH]c(O)c(N=Nc3nc(-c4ccccc4)cs3)c2c1`
# output inactive

# input Which outcome was entered for the compound `O=C(Nc1nc2ccccc2s1)Nc1ccccc1Cl` in this test?
# output inactive

# input Test call, this compound: `CCOc1ccccc1NC(=O)N/C(N)=N/c1nc2ccccc2s1`
# output active

# input Test call, this compound: `Cn1cc(-c2cc(N)n3nc(-c4c[nH]c5ccccc45)cc3n2)c2cc(Cl)ccc21`
# output active

# input Record lookup: outcome of this test for `O=C1NC(=NC23CC4CC(CC(C4)C2)C3)N/C1=C\c1ccc2ncccc2c1` ?
# output inactive

# input Call for entry `Cn1cc(-c2cc(N)n3nc(-c4c[nH]c5ccc(Cl)cc45)cc3n2)c2cc(Br)cnc21` :
# output active

# input Which outcome did this test record for the compound `Cc1ccc2nc(NC(=O)Nc3cccc(Cl)c3)sc2c1` ?
# output inactive

# input Assay result, entry `COc1ccc(C(=O)/C=C/c2ccc3c(c2)OCCO3)cc1S(N)(=O)=O` — outcome?
# output inactive

# input Please state the recorded outcome for this compound: N#CC1=C(c2cccs2)Nc2c(c(-c3ccccc3)nn2-c2ccccc2)C12C(=O)Nc1ccc(Cl)cc12 (centres undefined)
# output inactive

# input Could you please tell me the result logged for `O=C(N/N=C/c1ccc(-c2cccc([N+](=O)[O-])c2)s1)c1[nH]c2ccc(Br)cc2c1-c1ccccc1` in this assay?
# output inactive
